The measurements presented in this section are drawn from paper PMC10102027.

Give CC50 at 5 days for every item shown.
assaySummary: in vitro
Type: cell-based
conditions: human

Enquiry: Which measured CC50 at 5 days value corresponds to `Cc1c(C)c2c(c3c1CC[n+]1ccc(/C=C/c4ccc5c(c4)CCO5)cc1-3)-c1cc(/C=C/c3ccc4c(c3)CCO4)cc[n+]1CC2` ?
Return: > 50 µM

Enquiry: Cool, now `COc1ccc(/C=C/c2cc[n+]3c(c2)-c2c(c(C)c(C)c4c2-c2cc(/C=C/c5ccc(OC)c6ccccc56)cc[n+]2CC4)CC3)c2ccccc12`
Return: > 50 µM

Enquiry: Next entry: `Cn1cc(/C=C/c2cc(/C=C/c3cn(C)c4ccccc34)[n+]3c(c2)-c2c(ccc4c2-c2cccc[n+]2CCC4)CCC3)c2ccccc21`
Return: > 50 µM

Enquiry: Would you kindly repeat that for `C(=C\c1cc(/C=C/c2ccc3c(c2)CCO3)[n+]2c(c1)-c1c(ccc3c1-c1cccc[n+]1CCC3)CCC2)/c1ccc2c(c1)CCO2` ?
Return: > 50 µM

Enquiry: Also check `CN1/C(=C/c2cc3[n+](c4ccccc24)CCCc2ccc4c(c2-3)-c2cccc[n+]2CCC4)Sc2ccccc21`
Return: 24.4 µM

Enquiry: Entry to check: `C(=C\c1cc2ccccc2[nH]1)/c1cc[n+]2c(c1)-c1c(ccc3c1-c1cccc[n+]1CCC3)CCC2`
Return: > 50 µM
